Target: MDR1-ATPase (Homo sapiens)
Construct: isolated membranes
Assay: MDR1 ATPase assay (substrate potential for MDR1)
Settings: half-maximum inhibition of MDR1-ATPase stimulated by 30-40 micromolar verapamil, isolated Sf9 cell membranes
pKi: −log10 of the molar value.
Binary call on pKi: Y from 7 upward, N beneath that.

Consider the worked cases shown below.
COc1cc(OC[C@H](O)CN2CCCC(C(=O)NC(CCCc3ccccc3)CCCc3ccccc3)C2)cc(OC)c1OC (stereo partly shown) : N
O=C(NC(CCCc1ccccc1)CCCc1ccccc1)C1CCCN(C[C@@H](O)COc2cccc3ncccc23)C1 (stereo partly shown) : N
COc1cc(C(=O)C(=O)N2CCCC(C(=O)NC(CCCc3ccccc3)CCCc3ccccc3)C2)cc(OC)c1OC (stereo not shown) : N
O=C(NC(CCCc1ccccc1)CCCc1ccccc1)C1CCN(C[C@@H](O)COc2cccc3ncccc23)CC1 : N
O=C(NC1CCN(C[C@H](O)COc2cccc3ncccc23)CC1)C(CCCc1ccccc1)CCCc1ccccc1 (stereo in doubt) : Y

Does pKi meet or surpass 7 for `O=C(C1CCN(C[C@@H](O)COc2cccc3ncccc23)CC1)N(Cc1ccccc1)Cc1ccccc1` ? N

Tell me whether pKi is at least 7 here: O=C(NCCCCc1ccccc1)[C@H]1CN(C[C@@H](O)COc2cccc3ncccc23)CC[C@H]1C(=O)NCCCCc1ccccc1 (stereo in doubt) Y

* * *

Target: MDR1-ATPase (Homo sapiens, UniProt P08183)
Construct: isolated membranes
Sequence (P08183 whole entry): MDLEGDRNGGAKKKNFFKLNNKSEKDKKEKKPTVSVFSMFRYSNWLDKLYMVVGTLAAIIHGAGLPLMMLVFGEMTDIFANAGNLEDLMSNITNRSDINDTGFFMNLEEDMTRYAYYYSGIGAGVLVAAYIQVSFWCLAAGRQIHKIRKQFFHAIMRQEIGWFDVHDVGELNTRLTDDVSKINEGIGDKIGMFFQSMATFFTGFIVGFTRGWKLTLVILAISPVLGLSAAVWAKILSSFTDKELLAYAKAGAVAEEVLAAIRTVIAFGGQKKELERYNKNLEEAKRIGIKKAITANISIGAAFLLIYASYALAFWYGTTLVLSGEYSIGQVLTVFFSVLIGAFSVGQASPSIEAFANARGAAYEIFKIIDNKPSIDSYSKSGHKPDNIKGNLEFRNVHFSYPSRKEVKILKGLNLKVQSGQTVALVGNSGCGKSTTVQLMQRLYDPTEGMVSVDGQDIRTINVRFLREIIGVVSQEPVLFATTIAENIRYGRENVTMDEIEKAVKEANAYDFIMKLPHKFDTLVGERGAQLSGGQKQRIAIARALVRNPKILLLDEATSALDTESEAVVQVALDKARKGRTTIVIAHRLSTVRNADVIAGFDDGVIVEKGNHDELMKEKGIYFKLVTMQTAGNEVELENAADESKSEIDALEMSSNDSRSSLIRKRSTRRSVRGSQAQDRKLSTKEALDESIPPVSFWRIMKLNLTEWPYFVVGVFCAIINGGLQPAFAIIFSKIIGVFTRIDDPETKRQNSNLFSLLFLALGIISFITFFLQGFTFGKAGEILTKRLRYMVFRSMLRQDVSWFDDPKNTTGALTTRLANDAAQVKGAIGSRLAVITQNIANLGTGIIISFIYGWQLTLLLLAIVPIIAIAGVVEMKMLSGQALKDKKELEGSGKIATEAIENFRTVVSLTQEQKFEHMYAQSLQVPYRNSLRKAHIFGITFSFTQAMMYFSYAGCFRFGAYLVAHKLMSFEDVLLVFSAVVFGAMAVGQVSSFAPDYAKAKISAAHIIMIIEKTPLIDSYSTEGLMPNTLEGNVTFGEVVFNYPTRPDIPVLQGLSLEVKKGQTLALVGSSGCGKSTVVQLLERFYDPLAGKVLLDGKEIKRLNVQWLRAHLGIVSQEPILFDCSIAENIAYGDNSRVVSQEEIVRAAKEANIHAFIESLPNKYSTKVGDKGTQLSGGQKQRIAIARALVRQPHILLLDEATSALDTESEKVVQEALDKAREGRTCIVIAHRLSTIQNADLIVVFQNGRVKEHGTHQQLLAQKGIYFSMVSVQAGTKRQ
Experiment: MDR1 ATPase assay (substrate potential for MDR1)
Settings: concentration causing half-maximum activation of MDR1-ATPase, isolated Sf9 cell membranes; read-out: Substrate Potential Ka(MDR1-ATPase)
ENDPOINT_LABEL: pEC50
Units for pEC50: none; it is -log10 of a concentration expressed in mol/L.

For the compound O=C(NC1CCN(C[C@H](O)COc2cccc3ncccc23)CC1)C(CCCc1ccccc1)CCCc1ccccc1 (stereo in doubt) , what pEC50 is on record? 8.30
